biological target: human full-length VWF (human, UniProt P04275 764-2813); test: SPR, Biacore T200, antibody captured on Protein A, full-length VWF as analyte, single-cycle kinetics;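 also: running buffer HEPES pH 7.4 with 300 mM NaCl, 3 mM EDTA and 0.05% P20, about 350 RU antibody captured, in-line reference flow cell subtracted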
metric name: kon (M⁻¹ s⁻¹)
Hi! Could you send only the number? It should be in M⁻¹ s⁻¹, unit omitted.

binder	kon (M⁻¹ s⁻¹)
3-H9_H0_VL-par (antibody, human IgG1, kappa, V domains shown, also called 3-H9_H0 (hIgG1)) VH: QVQLVESGGGVVQPGRSLRLSCAASGFTFSNYDMSWVRQAPGKGLEWVASIHAIGITYYANWAEGRFTISRDNSKNTLYLQMNSLRAEDTAVYYCARGLVDLNMWGQGTLVTVSS VL: AIKMTQTPSSVSVAVGGTVTINCQSSQSVYSNNLLSWYQQKPGQPPKLLIYDASTLESGVPSRFKGSGSGTQFTLTISGVQCEDAATYYCQGSYYSSGWYNTFGGGTEVVVET	87700
1-G5_H2_VL-par (antibody, human IgG1, kappa, V domains shown, also called 1-G5_H2 (hIgG1)) VH: QQLVESGGGVVQPGRSLRLSCAASGFSLSSYDMTWVRQAPGKGLEWIGSIHATGITFYANWAKGRFTTSKDSNTVYLQMNSLRAEDTATYFCARGLVDLNMWGQGTLVTVSS VL: DPVMTQTASSVSAAVGGTVTINCQASQSVYNNNYLSWYQQKPGQPPKLLIYDASTLASGVPSRFSGNGSGTQFTLTISGVQCDDAATYYCQGSYYSGGWDTAFGGGTKVVVKT	26200
3-H9_H2_VL-par (antibody, human IgG1, kappa, V domains shown, also called 3-H9_H2 (hIgG1)) VH: QQLVESGGGVVQPGRSLRLSCAASGFSLSNYDMSWVRQAPGKGLEWIGSIHAIGITYYANWAEGRFTISRDKNTVYLQMNSLRAEDTATYFCARGLVDLNMWGQGTLVTVSS VL: AIKMTQTPSSVSVAVGGTVTINCQSSQSVYSNNLLSWYQQKPGQPPKLLIYDASTLESGVPSRFKGSGSGTQFTLTISGVQCEDAATYYCQGSYYSSGWYNTFGGGTEVVVET	92000

kon recorded for this binder, 1-G5_H0_VL-par rep (antibody, human IgG1, kappa, V domains shown, also called 1-G5_H0 (hIgG1)) VH: QVQLVESGGGVVQPGRSLRLSCAASGFTFSSYDMTWVRQAPGKGLEWVASIHATGITFYANWAKGRFTISRDNSKNTLYLQMNSLRAEDTAVYYCARGLVDLNMWGQGTLVTVSS VL: DPVMTQTASSVSAAVGGTVTINCQASQSVYNNNYLSWYQQKPGQPPKLLIYDASTLASGVPSRFSGNGSGTQFTLTISGVQCDDAATYYCQGSYYSGGWDTAFGGGTKVVVKT , is 84500

kon recorded for this binder, 3-H9_VH-par_L0 (antibody, human IgG1, kappa, V domains shown, also called 3-H9_L0 (hIgG1K)) VH: SQSLEESGGRLVTPGTPLTLTCSVSGFSLSNYDMSWVRQAPGKGLEWIGSIHAIGITYYANWAEGRFTISKTSTTVDLKMTSLTTEDTATYFCARGLVDLNMWGPGTLVTVSS VL: DIQMTQSPSSLSASVGDRVTITCQSSQSVYSNNLLSWYQQKPGKAPKLLIYDASTLESGVPSRFSGSGSGTDFTLTISSLQPEDFATYYCQGSYYSSGWYNTFGGGTKVEIKT , is 192000

kon recorded for this binder, 3-H9_H2_L0 (antibody, human IgG1, kappa, V domains shown, humanised, human IgG1 kappa) VH: QQLVESGGGVVQPGRSLRLSCAASGFSLSNYDMSWVRQAPGKGLEWIGSIHAIGITYYANWAEGRFTISRDKNTVYLQMNSLRAEDTATYFCARGLVDLNMWGQGTLVTVSS VL: DIQMTQSPSSLSASVGDRVTITCQSSQSVYSNNLLSWYQQKPGKAPKLLIYDASTLESGVPSRFSGSGSGTDFTLTISSLQPEDFATYYCQGSYYSSGWYNTFGGGTKVEIKT , is 78100

kon recorded for this binder, 3-H9_H0_L0 (antibody, human IgG1, kappa, V domains shown, humanised, human IgG1 kappa) VH: QVQLVESGGGVVQPGRSLRLSCAASGFTFSNYDMSWVRQAPGKGLEWVASIHAIGITYYANWAEGRFTISRDNSKNTLYLQMNSLRAEDTAVYYCARGLVDLNMWGQGTLVTVSS VL: DIQMTQSPSSLSASVGDRVTITCQSSQSVYSNNLLSWYQQKPGKAPKLLIYDASTLESGVPSRFSGSGSGTDFTLTISSLQPEDFATYYCQGSYYSSGWYNTFGGGTKVEIKT , is 80900
